Listed here: items and their measured activation.
- system: Cellular tumor antigen p53 (Homo sapiens) (UniProt P04637)
- Sequence (P04637 whole entry, looked up): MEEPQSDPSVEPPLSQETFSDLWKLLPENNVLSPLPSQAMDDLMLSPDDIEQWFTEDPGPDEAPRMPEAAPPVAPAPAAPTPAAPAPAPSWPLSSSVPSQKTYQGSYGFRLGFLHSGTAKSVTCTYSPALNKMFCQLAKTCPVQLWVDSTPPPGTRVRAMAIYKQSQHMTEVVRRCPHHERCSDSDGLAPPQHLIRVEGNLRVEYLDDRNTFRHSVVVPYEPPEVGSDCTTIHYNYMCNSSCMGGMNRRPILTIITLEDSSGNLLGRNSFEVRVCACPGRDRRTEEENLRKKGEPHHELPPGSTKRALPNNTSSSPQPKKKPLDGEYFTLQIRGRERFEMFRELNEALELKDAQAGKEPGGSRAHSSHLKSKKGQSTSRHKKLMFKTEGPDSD
- measurement.description: Primary qHTS for small molecule compounds that upregulate eGFP-tagged delta133p53alpha (in N-terminal) cells. (AID 2060322);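 further: cells pre-induced with doxycycline then dosed without doxycycline; series mostly up to about 56 µM; 0% = DMSO vehicle and 100% = reference activator; nearly all actives have a fitted effect of over 75% in size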
- assay.setup: NCI-H358 eGFP-delta133p53alpha fluorescence, 24 h; hits give high values
Records with an inconclusive call do not appear.
The answer is to be given in %; state only the numeric part.

Observe how each entry below is paired with its result.
CCOCc1nc2c(N)nc3ccccc3c2n1CC(C)(C)O: 4.77
C[N+]1(C)CCCC(OC(=O)C(O)(c2ccccc2)c2ccccc2)C1 (centres undefined): -37.9
Nc1ccncc1N: 21.8
CCOc1nc2cccc(C(=O)OCc3oc(=O)oc3C)c2n1Cc1ccc(-c2ccccc2-c2noc(O)n2)cc1: 0
COC(=O)C(CC1CCCC1)c1ccc(S(C)(=O)=O)cc1 (centres undefined): 0.955
C=C1CC/C=C(/CO)C(=O)C[C@@H]2[C@@H]1CC2(C)C: 7.14

Ask: Name the recorded activation of the item CC(COc1ccccc1)NC(C)C(O)c1ccc(O)cc1 (centres undefined) in your answer.
Result: 18.6

Ask: Tell me activation reported for C[C@@]12CC3(S(=O)(=O)O)OC(O1)[C@]1(COC(=O)c4ccccc4)[C@H]3C[C@]21O[C@@H]1O[C@H](CO)[C@@H](O)[C@H](O)[C@H]1O
Result: 14.5

Ask: Supply activation value. Item: CC(CCC1(O)OC2CC3C4CC=C5CC(O[C@@H]6O[C@H](CO)[C@@H](O[C@@H]7O[C@@H](C)[C@H](O)[C@@H](O)[C@H]7O)[C@H](O)[C@H]6O[C@@H]6O[C@@H](C)[C@H](O)[C@@H](O)[C@H]6O)CCC5(C)C4CCC3(C)C2C1C)CO[C@@H]1O[C@H](CO)[C@@H](O)[C@H](O)[C@H]1O (some centres undefined)
Result: 8.04

----------
- system: Cellular tumor antigen p53 (Homo sapiens)
- measurement.description: Primary qHTS for small molecule compounds that upregulate eGFP-tagged delta133p53alpha (in N-terminal) cells. (AID 2060322);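 further: cells pre-induced with doxycycline then dosed without doxycycline; series mostly up to about 56 µM; 0% = DMSO vehicle and 100% = reference activator; nearly all actives have a fitted effect of over 75% in size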
- assay.setup: NCI-H358 eGFP-delta133p53alpha fluorescence, 24 h; hits give high values
Inconclusive results are not listed. Square brackets hold non-standard residues; d marks the D form. Peptide text beside a SMILES is read from it. ξ: configuration not given here. ξPhe(βξ-Me) = CC(c1ccccc1)C(N)C(=O)O; GABA = NCCCC(=O)O
experimental.endpoint: activation (%)
Provide the reading as a plain figure in %.

These recorded examples may help you get a feel for the data.
C/C1=C\[C@H]2OC(=O)[C@@H](C)[C@@H]2CC/C(C(=O)O)=C/CC1: -5.34
CC1NC(=O)CCCNC(=O)C(Cc2c[nH]c3ccccc23)NC(=O)C(C)NC(=O)C(C(C)C)NC(=O)C(C(C)c2ccccc2)NC(=O)C(C(C)C)NC1=O (stereo not drawn) (cyclo([GABA]AV[ξPhe(βξ-Me)]VAW); configuration not given here): 6.11
Cc1cc(O)c2c(c1)C(=O)c1cccc(O)c1C2=O: 32.6
O=C(OC[C@H]1O[C@H](O[C@]2(CO)O[C@H](CO)[C@@H](O)[C@@H]2O)[C@H](O)[C@@H](O)[C@@H]1O)c1ccccc1: 0.763
O=C(O)[C@H](Cc1ccc(Nc2nccc3ccncc23)cc1)NC1=C(Br)C(=O)C12CCCCC2: -6.21
O=C1NC(=Nc2ccccc2F)S/C1=C\c1ccc(C(=O)O)cc1: 0.333
NC(=O)c1ncn([C@@H]2O[C@H](CO)[C@@H](O)[C@H]2O)c1N: -7.53

Attention now turns to another entry.
Ask: Give the value of activation reported for the following: CC(C)(O)c1ccc2c(c1)C(=O)C[C@H]1[C@](C)(C(=O)O)CCC[C@]21C
Result: -1.53
